- tested.target: Bcl-xL (residues 1-209, loop 45-86 deleted) (Homo sapiens (Human), UniProt Q07817, DEL45-86)
- Sequence (Q07817 other isoform, or with tags, fused parts or gaps del 45-86): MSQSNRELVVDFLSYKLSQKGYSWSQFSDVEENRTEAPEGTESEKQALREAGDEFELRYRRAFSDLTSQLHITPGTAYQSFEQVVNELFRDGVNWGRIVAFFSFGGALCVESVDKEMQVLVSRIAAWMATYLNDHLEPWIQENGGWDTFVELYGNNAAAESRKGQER
- assay.remarks: Fluorescence polarization anisotropy competition selectivity assay (FITC-Bak peptide) with Bcl-xL
- test.parameters: Table 3; 4 nM Bcl-xL, 10 nM FITC-Bak
pKi: −log10 of the molar value.
# reported pKi; entries follow
endpoint.label: pKi

1) Cc1cc(OCCCc2c3n(c4c(-c5c(C)nn(C)c5C)cccc24)CCCN(Cc2cccc(C(=O)O)c2)C3=O)cc(C)c1Cl = 4.87
2) Cc1cc(OCCCc2c3n(c4c(-c5c(C)nn(C)c5C)cccc24)CCN(Cc2cccc(C(=O)O)c2)C3=O)cc(C)c1Cl = 5.19
3) Cc1cc(OCCCc2c(C(=O)Nc3cccc(C(=O)O)c3)n(C)c3c(-c4c(C)nn(C)c4C)c(Cl)ccc23)cc(C)c1Cl = 4.81
4) Cc1cc(OCCCc2c(C(=O)NCc3cc(C(=O)O)ccn3)[nH]c3c(-c4c(C)nn(C)c4C)cccc23)cc(C)c1Cl = 4.57
